- Test system: foxtail, giant (giant foxtail, Setaria faberii)
- method_description: Test C greenhouse herbicide test, pre- and postemergence
- Format: in vivo
- condition_parameters: Preemergence, 31 g ai/ha; scale 0 to 100, 0 is no effect, 100 is complete control
Lab note: class by Plant response rating, Foxtail, Giant, see LOW = under 30, MEDIUM = from 30 up to 70, HIGH = 70 and over

1. CCCC(=O)Oc1c(C)nn(C)c(=O)c1-c1c(CC)sc2ccc(C)cc12	MEDIUM
2. CC(=O)Oc1c(C)nn(C)c(=O)c1-c1c(C)cc(C)c2ccccc12	MEDIUM
3. Cc1cc2ccccc2c(-c2c(O)c(C)nn(C)c2=O)c1C	LOW
4. Cc1ccc2ccc(Cl)cc2c1-c1c(O)c(C)nn(C)c1=O	HIGH
5. CCc1ccc2ccccc2c1-c1c(O)c(C)nn(C)c1=O	MEDIUM
6. CCc1sc2ccc(C)cc2c1-c1c(O)c(C)nn(C)c1=O	LOW
7. Cc1ccc2ccccc2c1-c1c(O)c(I)nn(C)c1=O	HIGH

---

Quick reference: Plant response rating, Russian Thistle of the listed items.
- System: Russian thistle (Salsola kali)
- method_description: Test D controlled growth environment herbicide test, pre- and postemergence
- Format: in vivo
- condition_parameters: Preemergence, 125 g ai/ha; scale 0 to 100 (0 no effect, 100 complete control)
readout_name: Plant response rating, Russian Thistle

1. Cc1ccc2ccccc2c1-c1c(OC(=O)OC(C)C)c(C)nn(C)c1=O	15
2. Cc1nn(C)c(=O)c(-c2c(C)sc3ccc(Br)cc23)c1O	0
3. Cc1cc2ccccc2c(-c2c(O)c(C)nn(C)c2=O)c1C	10
4. Cc1nn(C)c(=O)c(-c2ccc(Br)c3ccccc23)c1O	25

---

- System: galium (catchweed bedstraw, Galium aparine)
- method_description: Test C greenhouse herbicide test, pre- and postemergence
- Format: in vivo
- condition_parameters: Postemergence, 31 g ai/ha; 0 to 100 scale (0 no effect, 100 complete control)
Quick reference for Galium plant response rating among some molecules
readout_name: Galium plant response rating

1. Cc1nn(C)c(=O)c(-c2c(C)sc3c(C)cc(Cl)cc23)c1O [Compound 35]	90
2. Cc1ccc2ccccc2c1-c1c(OC(=O)OC(C)C)c(C)nn(C)c1=O [Compound 72]	80
3. CCc1sc2c(C)cc(C)cc2c1-c1c(O)c(C)nn(C)c1=O [Compound 57]	95
4. Cc1ccc2sc(Br)c(-c3c(O)c(C)nn(C)c3=O)c2c1 [Compound 79]	95
5. Cc1cc(C)c2ccccc2c1-c1c(O)c(C)nn(C)c1=O [Compound 21]	98
6. CCc1sc2ccc(C)cc2c1-c1c(O)c(C)nn(C)c1=O [Compound 47]	80
7. Cc1cc(C)c2sc(C)c(-c3c(O)c(C)nn(C)c3=O)c2c1 [Compound 2]	95
8. Cc1nn(C)c(=O)c(-c2ccc(Br)c3ccccc23)c1O [Compound 75]	90
9. Cc1ccc2sc(C)c(-c3c(OC(=O)OC(C)C)c(C)nn(C)c3=O)c2c1 [Compound 66]	90

---

- System: ryegrass, Italian (Italian ryegrass, Lolium multiflorum)
- method_description: Test C greenhouse herbicide test, pre- and postemergence
- Type: in vivo
- condition_parameters: Preemergence, 250 g ai/ha; scale 0 to 100, 0 no effect, 100 complete control
readout_name: Ryegrass, Italian plant response rating

1. CCCC(=O)Oc1c(C)nn(C)c(=O)c1-c1c(CC)sc2ccc(C)cc12	30
2. CC(=O)Oc1c(Cl)nn(C)c(=O)c1-c1c(C)sc2ccc(Cl)cc12	90
3. Cc1nn(C)c(=O)c(-c2cccc3ccccc23)c1O	100
4. CCc1sc2c(C)cc(C)cc2c1-c1c(O)c(C)nn(C)c1=O	85
5. Cc1cc(C)c2sc(C)c(-c3c(O)c(C)nn(C)c3=O)c2c1	98
6. Cc1nn(C)c(=O)c(-c2ccc(Cl)c3ccccc23)c1O	100
7. COC(=O)Oc1cnn(C)c(=O)c1-c1c(C)sc2ccccc12	30
8. CC(=O)Oc1c(C)nn(C)c(=O)c1-c1c(C)sc2ccc(Cl)cc12	95
9. CCC(=O)Oc1c(OC)nn(C)c(=O)c1-c1c(C)sc2ccc(Cl)cc12	95
10. Cc1ccc2sc(Br)c(-c3c(O)c(C)nn(C)c3=O)c2c1	90
11. Cc1cc2ccccc2c(-c2c(O)c(C)nn(C)c2=O)c1C	95

---

- Test system: lambsquarters (Chenopodium album)
- method_description: Test C greenhouse herbicide test, pre- and postemergence
- Assay type: in vivo
- condition_parameters: Preemergence, 250 g ai/ha; scale 0 to 100, 0 no effect, 100 complete control
readout_name: Lambsquarters plant response rating

1) CC(=O)Oc1c(C)nn(C)c(=O)c1-c1c(C)sc2ccc(C(F)(F)F)cc12	100
2) CCCC(=O)Oc1c(C)nn(C)c(=O)c1-c1c(CC)sc2ccc(C)cc12	95
3) CC(=O)Oc1c(C)nn(C)c(=O)c1-c1c(C)cc(C)c2ccccc12	95
4) COC(=O)Oc1c(C)nn(C)c(=O)c1-c1c(C)sc2ccc(C)cc12	98
5) CCCC(=O)Oc1c(C)nn(C)c(=O)c1-c1c(C)sc2ccc(C)cc12	95
6) Cc1ccc2sc(C)c(-c3c(OC(=O)OC(C)C)c(C)nn(C)c3=O)c2c1	98
7) CCc1ccc2ccccc2c1-c1c(O)c(C)nn(C)c1=O	90
8) Cc1sc2ccccc2c1-c1c(O)c(Cl)nn(C)c1=O	90
9) CCC(=O)Oc1c(OC)nn(C)c(=O)c1-c1c(C)sc2ccc(Cl)cc12	95
10) COC(=O)Oc1c(OC)nn(C)c(=O)c1-c1c(C)ccc2ccccc12	100

---

- Test system: waterhemp_RES1 (ALS & Triazine resistant common waterhemp, Amaranthus rudis)
- method_description: Test E greenhouse herbicide test, postemergence
- Assay type: in vivo
- condition_parameters: 125 g ai/ha, scale 0 to 100 (0 no effect, 100 complete control)
Here the recorded Plant response rating, Waterhemp_RES1 is given for each entry.
readout_name: Plant response rating, Waterhemp_RES1

1. Cc1ccc2sc(C)c(-c3c(OC(=O)OC(C)C)c(C)nn(C)c3=O)c2c1	80
2. CCc1sc2c(C)cc(C)cc2c1-c1c(O)c(C)nn(C)c1=O	40
3. Cc1ccc2ccccc2c1-c1c(OC(=O)OC(C)C)c(C)nn(C)c1=O	80
4. Cn1nc(Br)c(O)c(-c2cccc3ccccc23)c1=O	80
5. Cc1ccc2sc(Br)c(-c3c(O)c(C)nn(C)c3=O)c2c1	70
6. Cc1nn(C)c(=O)c(-c2ccc(Br)c3ccccc23)c1O	95

---

- Tested on: velvetleaf (Abutilon theophrasti)
- method_description: Test C greenhouse herbicide test, pre- and postemergence
- Assay type: in vivo
- condition_parameters: Postemergence, 31 g ai/ha; 0 to 100 scale (0 no effect, 100 complete control)
Velvetleaf plant response rating: recorded values
readout_name: Velvetleaf plant response rating

1) COC(=O)Oc1c(C)nn(C)c(=O)c1-c1c(C)sc2ccc(C)cc12 [Compound 80]	70
2) CCc1sc2c(C)cc(C)cc2c1-c1c(O)c(C)nn(C)c1=O [Compound 57]	90
3) Cc1nn(C)c(=O)c(-c2ccc(F)c3ccccc23)c1O [Compound 41]	30
4) Cn1nc(Br)c(O)c(-c2cccc3ccccc23)c1=O [Compound 20]	25
5) Cc1nn(C)c(=O)c(-c2c(C)sc3ccc(Br)cc23)c1O [Compound 22]	20
6) Cc1ccc2sc(C)c(-c3c(OC(=O)OC(C)C)c(C)nn(C)c3=O)c2c1 [Compound 66]	55

---

- Test system: speedwell (bird's-eye speedwell, Veronica persica)
- method_description: Test D controlled growth environment herbicide test, pre- and postemergence
- Type: in vivo
- condition_parameters: Postemergence, 125 g ai/ha; visual rating on scale 0 (no effect) to 100 (complete control), 14 to 21 d
# Plant response rating, Speedwell per entry
readout_name: Plant response rating, Speedwell

1. CCc1sc2ccc(C)cc2c1-c1c(O)c(C)nn(C)c1=O	40
2. Cc1nn(C)c(=O)c(-c2c(C)sc3ccc(Br)cc23)c1O	65
3. Cc1ccc2sc(Br)c(-c3c(O)c(C)nn(C)c3=O)c2c1	35
4. Cc1ccc2sc(C)c(-c3c(OC(=O)OC(C)C)c(C)nn(C)c3=O)c2c1	70
5. Cc1nn(C)c(=O)c(-c2cccc3ccccc23)c1O	100
6. Cc1nn(C)c(=O)c(-c2c(C)sc3c(C)cc(Cl)cc23)c1O	80
7. Cc1cc(C)c2ccccc2c1-c1c(O)c(C)nn(C)c1=O	100
8. Cc1nn(C)c(=O)c(-c2cccc3ccc(Br)cc23)c1O	100
9. Cn1nc(Br)c(O)c(-c2cccc3ccccc23)c1=O	100

---

Listing of recorded Johnsongrass plant response rating by entry.
- System: johnsongrass (Sorghum halepense)
- method_description: Test C greenhouse herbicide test, pre- and postemergence
- Assay type: in vivo
- condition_parameters: postemergence, 62 g ai/ha; scale 0 to 100, 0 no effect, 100 complete control
readout_name: Johnsongrass plant response rating

1. COC(=O)Oc1cnn(C)c(=O)c1-c1c(C)sc2ccccc12 [Compound 97]	0
2. Cc1ccc2sc(C)c(-c3c(OC(=O)OC(C)C)c(C)nn(C)c3=O)c2c1 [Compound 66]	5
3. Cc1ccc2sc(C)c(-c3c(OC(=O)C(C)(C)C)c(C)nn(C)c3=O)c2c1 [Compound 26]	5
4. Cc1ccc2ccccc2c1-c1c(O)c(I)nn(C)c1=O [Compound 29]	5
5. Cc1ccc2ccccc2c1-c1c(O)c(Br)nn(C)c1=O [Compound 23]	5

Origin of values: patent US10597388B2
